Test system: CAKI-1
Test Description: Cytotoxicity against human CAKI-1 cells by SRB assay
Format: functional
Readout: log10 of GI50 (log10 of the value in nM)

>  <Molecule>
COc1ccc(/C=C/c2cc(OC)cc(OC)c2/C=C(\C#N)c2ccc(OC)cc2)cc1

>  <Result>
2.70

$$$$
>  <Molecule>
COc1ccc(/C=C(\C#N)c2cc(OC)c(OC)c(OC)c2)cc1O

>  <Result>
1.48

$$$$
>  <Molecule>
COc1cc(/C=C(\C#N)c2cc(OC)c(OC)c(OC)c2)cc(OC)c1

>  <Result>
3.79

$$$$
>  <Molecule>
COc1ccc(/C=C(\C#N)c2cc(OC)cc(OC)c2)cc1

>  <Result>
2.73

$$$$
>  <Molecule>
COc1ccc(/C=C(/C#N)c2ccc(OC)c(OC)c2)cc1O

>  <Result>
2.62

$$$$
>  <Molecule>
COc1ccc(/C=C/c2cc(OC)cc(OC)c2/C=C(\C#N)c2ccccc2OC)cc1

>  <Result>
3.34

$$$$
>  <Molecule>
COc1ccc(/C=C\c2cc(OC)c(OC)c(OC)c2)cc1O [COMBRETASTATIN A4]

>  <Result>
1.41

$$$$

Just for reference, ChEMBL document CHEMBL3739271 is where these values come from.
